target: Human complement C1s enzyme (Homo sapiens (Human)); experiment: Human C1s enzyme assay; format: biochemical; settings: Human complement C1s enzyme 1.16 nM, substrate Z-L-Lys-SBzl 100 μM, assay of Example 3; read-out: IC50 (Stars)
Sequence (P09871 438-688 limits assumed): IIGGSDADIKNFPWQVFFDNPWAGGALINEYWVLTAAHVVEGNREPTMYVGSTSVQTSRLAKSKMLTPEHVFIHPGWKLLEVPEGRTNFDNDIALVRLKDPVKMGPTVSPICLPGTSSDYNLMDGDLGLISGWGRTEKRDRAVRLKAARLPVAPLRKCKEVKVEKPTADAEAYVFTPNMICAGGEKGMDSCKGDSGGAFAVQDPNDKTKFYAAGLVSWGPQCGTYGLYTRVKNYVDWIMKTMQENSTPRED
Sequence (P09871 16-437 partner limits assumed): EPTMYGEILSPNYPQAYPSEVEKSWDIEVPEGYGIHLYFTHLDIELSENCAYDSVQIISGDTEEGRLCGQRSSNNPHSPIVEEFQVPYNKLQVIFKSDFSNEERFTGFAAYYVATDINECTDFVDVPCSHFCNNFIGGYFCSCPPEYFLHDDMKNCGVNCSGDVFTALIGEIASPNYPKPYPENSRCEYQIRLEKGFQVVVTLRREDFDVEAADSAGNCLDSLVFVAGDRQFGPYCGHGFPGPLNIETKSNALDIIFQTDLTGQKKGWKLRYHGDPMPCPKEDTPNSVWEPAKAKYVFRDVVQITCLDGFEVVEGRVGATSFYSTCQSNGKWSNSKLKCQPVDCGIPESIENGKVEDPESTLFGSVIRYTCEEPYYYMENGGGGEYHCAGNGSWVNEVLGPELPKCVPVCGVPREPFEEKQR
Please respond with reported IC50 for every item in the list.

IC50 measured on N=C(N)c1csc(CNC(=O)[C@@H]2CC3(CN2C(=O)CN2Cc4ccc(-c5ccc(F)cc5F)cc4C2)OCCO3)c1 = < 100 nM

IC50 measured on C[C@@H](NC(=O)[C@@H]1C[C@H](c2cccnc2)CN1C(=O)CNC(=O)c1ccc2c(c1)-c1ccccc1C2(F)F)c1cc(C(=N)N)cs1 = < 100 nM

IC50 measured on C[C@@H](NC(=O)[C@@H]1C[C@@H](c2ccccc2)CN1C(=O)CNC(=O)c1ccc2oc3ccccc3c2c1)c1cc(C(=N)N)cs1 = < 100 nM

IC50 measured on C[C@@H](NC(=O)[C@@H]1CC2(CN1C(=O)CNC(=O)c1ccc3c(c1)-c1ccccc1C3(F)F)OCCO2)c1cc(C(N)=O)cs1 = > 1000 nM

IC50 measured on C[C@@H](NC(=O)[C@@H]1CC2(CN1C(=O)CNC(=O)c1ccc3c(c1)oc1ccccc13)OCCO2)c1cc(C(=N)N)cs1 = < 100 nM

IC50 measured on C[C@@H](NC(=O)[C@@H]1C[C@@H](c2ccncc2)CN1C(=O)CNC(=O)c1ccc2c(c1)-c1ccccc1C2(F)F)c1cc(C(=N)N)cs1 = < 100 nM

IC50 measured on N=C(N)c1csc(CNC(=O)[C@@H]2CC3(CN2C(=O)CNC(=O)c2ccc(-c4ccc(F)c(F)c4)cc2)OCCO3)c1 = < 100 nM

IC50 measured on N=C(N)c1csc(CNC(=O)[C@@H]2CC3(CN2C(=O)CNC(=O)c2ccc(-c4ccc(C(=O)O)c(F)c4)cc2)OCCO3)c1 = > 1000 nM

IC50 measured on N=C(N)c1csc(CNC(=O)[C@@H]2CC3(CN2C(=O)CN2Cc4cc(-c5ccc(F)cc5)ccc4C2=O)OCCO3)c1 = < 100 nM

IC50 measured on C[C@@H](NC(=O)[C@@H]1C[C@@H](C(F)(F)F)CN1C(=O)CNC(=O)c1ccc(Oc2ccc(F)cc2)cc1)c1cc(C(=N)N)cs1 = < 100 nM

IC50 measured on N=C(N)c1csc(CNC(=O)[C@@H]2CC3(CN2C(=O)CNC(=O)c2ccc(-c4ccc(F)cc4C(=O)O)cc2)OCCO3)c1 = < 100 nM

IC50 measured on CO[C@@H]1C[C@@H](C(=O)N[C@H](C)c2cc(C(=N)N)cs2)N(C(=O)CNC(=O)c2ccc3oc4ccccc4c3c2)C1 = < 100 nM

IC50 measured on Cc1ccc(-c2cnc(C(=O)NCC(=O)N3CC4(C[C@H]3C(=O)N[C@H](C)c3cc(C(=N)N)cs3)OCCO4)c(F)c2)cc1 = < 100 nM

IC50 measured on C[C@@H](NC(=O)[C@@H]1CC2(CN1C(=O)CNC(=O)c1ccc3nc4ccccc4cc3c1)OCCO2)c1cc(C(=N)N)cs1 = < 100 nM

IC50 measured on CS(=O)(=O)[C@@H]1C[C@@H](C(=O)N[C@H](CO)c2cc(C(=N)N)cs2)N(C(=O)CNC(=O)c2ncc(-c3ccccc3)cc2F)C1 = < 100 nM

IC50 measured on NCCCCNc1csc(CNC(=O)[C@@H]2CC3(CN2C(=O)CNC(=O)c2ccc(Oc4ccc(F)cc4)cc2)OCCO3)c1 = > 1000 nM

IC50 measured on C[C@@H](NC(=O)[C@@H]1CC2(CN1C(=O)CNC(=O)c1ccc3c(c1)-c1cc(F)ccc1C3(F)F)OCCO2)c1cc(C(=N)N)cs1 = < 100 nM

IC50 measured on C[C@@H](NC(=O)[C@@H]1CC2(CN1C(=O)CN1Cc3cc(-c4ccccc4)ccc3C1=O)OCCO2)c1cc(C(=N)N)cs1 = < 100 nM

IC50 measured on N=C(N)c1csc(CNC(=O)[C@@H]2CC3(CN2C(=O)CN2CCc4cc(-c5ccc(F)cc5)ccc4C2=O)OCCO3)c1 = > 1000 nM

IC50 measured on CS(=O)(=O)N(c1csc(CNC(=O)[C@@H]2CC3(CN2C(=O)CNC(=O)c2ccc(Oc4ccc(F)cc4)cc2)OCCO3)c1)S(C)(=O)=O = > 1000 nM

IC50 measured on C[C@@H](NC(=O)[C@@H]1C[C@]2(Cn3cncn3)C[C@@H]2N1C(=O)CNC(=O)c1ccc2c(c1)-c1ccccc1C2(F)F)c1cc(C(=N)N)cs1 = < 100 nM

IC50 measured on C[C@@H](NC(=O)[C@@H]1C[C@@H](S(C)(=O)=O)CN1C(=O)CNC(=O)c1ccc2c(c1)C(C)(C)c1ccccc1-2)c1cc(C(=N)N)cs1 = < 100 nM

IC50 measured on C[C@@H](NC(=O)[C@@H]1CC2(CN1C(=O)Cc1ccc(-c3ccc(F)cc3F)cc1)OCCO2)c1cc(C(=N)N)cs1 = < 100 nM

IC50 measured on N=C(N)c1csc(CNC(=O)[C@@H]2CC3(CN2C(=O)CNC(=O)c2ccc(-c4ccc(C(=O)O)cc4)cc2)OCCO3)c1 = < 100 nM
